Measured melting point, listed per entry for reference.

Here is how some compounds turned out for melting point.
compound	metric	reported measurement
CC1(C)OC2c3cc(F)ccc3N3CCC2(CC3)O1 (configuration not stated)	melting point	120 to 122 °C
CCc1cccc2c3c([nH]c12)C(CC)(CC=N)OCC3 (configuration not stated)	melting point	101 to 103 °C
c1ccc(CNC2CN(C(c3ccccc3)c3ccccc3)C2)cc1	melting point	73 to 75 °C
O=C(NC(Cc1ccc(OCc2ccccc2)cc1)C(=O)O)c1cn2cc(-c3ccc(Cl)cc3)cnc2n1 (configuration not stated)	melting point	252 to 253 °C
CS(=O)(=O)c1ccc(-c2cnn(C3CCCC3)c(=O)c2-c2ccc(F)cc2)cc1	melting point	191 to 193 °C
Cc1ccc(OCc2c(F)cccc2Cl)c(NC(=N)Nc2ccc(Cl)cc2)n1	melting point	148 to 149 °C
Cc1nc2cc(C)c(C)cc2c(=O)[nH]1	melting point	310 to 312 °C
Cc1ccc(C2=N[C@H](c3ccccc3)CO2)cc1C#CCN(O)C(N)=O	melting point	169 to 170 °C
O=C1C2CCCN2c2ccccc2N1Cc1ccccc1 (configuration not stated)	melting point	156 to 157 °C
CCOC(=O)C(=O)Nc1ccc(Cl)ccc1=O	melting point	178 to 179 °C

IN: Which melting point reading was recorded for the compound Nc1ccc2oc(=O)c(N)cc2c1 ?
OUT: 183 to 186 °C

IN: Which melting point reading was recorded for the compound O=C(CCl)Nc1ccc(Sc2ccc([N+](=O)[O-])cc2)cc1 ?
OUT: 217 to 219 °C
